# MEASUREMENT TARGET: huNav1.7α (human, UniProt Q15858 1-1988)
# ASSAY SUMMARY: cell-based or functional assay
Property: 2-pulse IC50 [M], P2; scope: individual binders
Unit M implied. Number only.

I have this binder here, F010300316 (VHH, vs F0103275B05: T57W) VHH: EVQLVESGGGLVQPGGSLRLSCAASGSIFNINSMAWYRRAPGKQRELVASSTNGGSWNYADSVKGRFTISRDNAKRVYLQMNSLTPEDTAVYYCNALLQPSIYDISRTYWGQGTLVTVSS , and I need its recorded 2-pulse IC50 [M], P2.
1e-06

Consider next the binder F010300631 (VHH, vs F0103275B05: S27P, I28V, S50Y, N53P, N93R) VHH: EVQLVESGGGLVQPGGSLRLSCAASGPVFNINSMAWYRRAPGKQRELVAYSTPGGSTNYADSVKGRFTISRDNAKRVYLQMNSLTPEDTAVYYCRALLQPSIYDISRTYWGQGTLVTVSS in the same way.
8e-07
